# Test system: human breast cancer cells MCF-7
# method description: MTS cell growth inhibition, MCF-7
# Assay type: cell-based
# run parameters: MCF7, compound concentration 10 μM, 48 h, read-out: Inhibition rate against MCF-7 at 10 μM (%)
Classify by measured inhibition at 10 µM: class 1 if it is equal to or exceeds 7%, class 0 if it is smaller.

// below: answered compounds
- COc1ccc(NC(=O)c2cc3scnc3[nH]2)cc1: class 0
- COC(=O)c1ccc(NC(=O)c2cc3scnc3[nH]2)cc1: class 1
- O=C(NCc1ccccc1-c1ccoc1)c1cc2scnc2[nH]1: class 0

Quick check, inhibition at 10 µM >= 7%? CS(=O)(=O)c1ccc(OCc2cccc(NC(=O)c3cc4scnc4[nH]3)c2)cc1
class 0

Answer whether inhibition at 10 µM of O=C(Nc1ccc(C(F)(F)F)cc1)c1cc2scnc2[nH]1 is greater than or equal to 7%.
class 1

---

# Test system: Human lung cancer cells A549
# method description: MTS cell growth inhibition, A549
# Assay type: cell-based
# run parameters: growth inhibition
metric name: IC50

Please report the recorded IC50 for CC(C)Oc1ccc(NC(=O)c2cc3scnc3[nH]2)cc1 .
30 nM

---

Collected inhibition at 10 µM values appear next to each entry.
# System: Human lung cancer cells A549
# method description: MTS cell growth inhibition, A549
# Assay type: cell-based
# run parameters: compound concentration 10 μM, 48 h, MTS, read-out: Inhibition rate against A549 at 10 μM (%)
Numeric only. Scale: %

Below are worked cases with known answers.
• O=C(Nc1ccc([N+](=O)[O-])cc1)c1cc2scnc2[nH]1 = 32.4
• CCN(CC)c1ccc(NC(=O)c2cc3scnc3[nH]2)cc1 = 69.4
• O=C(NCc1ccccc1-c1cc2ccccc2o1)c1cc2scnc2[nH]1 = 50.3
• O=C(Nc1ccc(OC(F)(F)F)cc1)c1cc2scnc2[nH]1 = 6.3
• O=C(NCc1ccccc1-c1ccncc1)c1cc2scnc2[nH]1 = 54.8
• CC(C)Oc1ccc(NC(=O)c2cc3scnc3[nH]2)cc1 = 81.9
• O=C(NCc1ccccc1-c1ccoc1)c1cc2scnc2[nH]1 = 67.9
• COc1ccc(NC(=O)c2cc3scnc3[nH]2)cc1 = 9.3

For the molecule shown here, CN(C)c1ccc(NC(=O)c2cc3scnc3[nH]2)cc1 , give the reported inhibition at 10 µM.
3.4

---

# inhibition at 10 µM per entry
# Test system: human breast cancer cells MCF-7
# method description: MTS cell growth inhibition, MCF-7
# Assay type: cell-based
# run parameters: MCF7, compound concentration 10 μM, 48 h, read-out: Inhibition rate against MCF-7 at 10 μM (%)
Expressed in %, but write only the number.

# annotated cases, reported inhibition at 10 µM shown
- O=C(Nc1ccc([N+](=O)[O-])cc1)c1cc2scnc2[nH]1: 17.6
- O=C(Nc1ccc(OC(F)(F)F)cc1)c1cc2scnc2[nH]1: 3.4

Now consider the entry below.
Can you look up the measured inhibition at 10 µM of CC(C)Oc1ccc(NC(=O)c2cc3scnc3[nH]2)cc1 for me?
23.1

---

# Tested on: Human lung cancer cells A549
# method description: MTS cell growth inhibition, A549
# Type: cell-based
# run parameters: compound concentration 10 μM, 48 h, MTS, read-out: Inhibition rate against A549 at 10 μM (%)
Listing of entries alongside the reported inhibition at 10 µM.

Example results:
• CSc1ccc(OCc2cccc(NC(=O)c3cc4scnc4[nH]3)c2)cc1 = < 0%
• O=C(NCc1ccccc1-c1ccco1)c1cc2scnc2[nH]1 = < 0%

Now look at this entry.
Given the molecule CS(=O)(=O)c1ccc(OCc2cccc(NC(=O)c3cc4scnc4[nH]3)c2)cc1 , what is its reported inhibition at 10 µM?
< 0%
